experiment: NCI Yeast Anticancer Drug Screen. Data for the mlh1 rad18 strain (AID 175); settings: S. cerevisiae mlh1 rad18 strain growth inhibition; at 50.0 µM; stronger effect = higher value
The panel holds about 79,000 compounds, 15% with a hit somewhere; the sample as a whole holds those more often.
# growth inhibition per entry
observation type: growth inhibition (%)

{"compound": "CC(=O)CCC(CCCC(CCC(C)=O)[N+](=O)[O-])[N+](=O)[O-] (stereo not given)", "measured number": 4.15}
{"compound": "Fc1ccccc1-c1nnc(-c2ccc3ccccc3c2)o1", "measured number": 14.7}
{"compound": "O=C(Nc1ccn(CCI)c(=O)n1)c1ccccc1", "measured number": 26.1}
{"compound": "Cc1nc2ccc(Cl)cc2c(=O)[nH]1", "measured number": 0.9}
{"compound": "CC(C)(C)CI", "measured number": -35.3}
{"compound": "CC/C=C(\\C)C1(CC)C(=O)NC(=O)N=C1N (stereo not given)", "measured number": -11.9}
{"compound": "C=C(C)C(=O)O[C@@H]1C[C@@]2(C)O[C@@H]2C[C@H](O)/C(C)=C/[C@H]2OC(=O)C(=C)[C@@H]21", "measured number": -43.1}
{"compound": "O=C1NC(=O)C(=O)N1", "measured number": -1.8}
{"compound": "COC(=O)C1(NC(=O)C2(N3C(=O)c4ccccc4C3=O)CCCC2)CCCC1", "measured number": 1.6}
{"compound": "COc1cc([N+](=O)[O-])cc(C(C)=O)c1O", "measured number": 38.5}
{"compound": "CCOc1ccccc1/C=C(/C#N)C(N)=O", "measured number": -1.3}
{"compound": "O=C(O)/C=C/C(=O)N(c1ccccc1)N(C(=O)/C=C/C(=O)O)c1ccccc1", "measured number": 17.5}
{"compound": "O=C(/C=C/c1ccccc1)Sc1ccccc1", "measured number": 1.65}
{"compound": "COc1ccc2c(c1)CCCN2S(=O)(=O)c1ccccc1[N+](=O)[O-]", "measured number": 1.85}
{"compound": "COCCc1c2ccccc2cc2ccccc12", "measured number": 17.8}
{"compound": "CC(=O)Oc1ccc2ccccc2c1CS(=O)(=O)O", "measured number": 10.4}
{"compound": "C=C(C)Cc1c(C)c(Cl)cc(Cl)c1OC(=O)Nc1ccccc1", "measured number": 19.7}
{"compound": "CCCc1sc(NC(C)=O)nc1-c1ccccc1", "measured number": 10.2}
{"compound": "Cc1nc(N)nc(C)c1N=Nc1cc(Br)ccc1Br", "measured number": -7.6}
{"compound": "O=C(OCc1ccccc1CN1CCCC1)c1ccc(Br)cc1", "measured number": -17.9}
{"compound": "O=C(O)CNC(=O)C(Cc1ccccc1)NC(=O)CNC(=O)C(CSC(c1ccccc1)c1ccccc1)NC(=O)C(CSC(c1ccccc1)(c1ccccc1)c1ccccc1)N1C(=O)c2ccccc2C1=O (stereo not given)", "measured number": 11}
{"compound": "COc1cc(CN=c2nc(N(C)C)ss2)cc(OC)c1OC", "measured number": -4.35}
{"compound": "COc1cccc(-c2nc(-c3cnccn3)n(Cc3ccccc3)n2)c1", "measured number": -38.8}
{"compound": "O=C(Nc1ccc([N+](=O)[O-])cc1Cl)c1ccc(C(=O)Nc2ccc([N+](=O)[O-])cc2Cl)cc1", "measured number": 0.55}
{"compound": "CCOP(=O)(OCC)C1=C(P(=O)(OCC)OCC)C(F)(F)C1(F)F", "measured number": -6.3}
